# TESTED ON: purified and unphosphorylated T315I Abl kinase domain (ABL_T315I_0P) (Mus musculus, UniProt P00520, T315I)
# Construct: The c-Abl T3151 KD (kinase domain) was purified as follows; Met-Ser-Leu (vector-derived residues) (N); made in house; host or cells: E. coli BL21(DE3) strains (Codon+RIL, or pSA0145 for the lambda phosphatase co-expression plasmid)
# Sequence (P00520 242-493 T315I limits assumed): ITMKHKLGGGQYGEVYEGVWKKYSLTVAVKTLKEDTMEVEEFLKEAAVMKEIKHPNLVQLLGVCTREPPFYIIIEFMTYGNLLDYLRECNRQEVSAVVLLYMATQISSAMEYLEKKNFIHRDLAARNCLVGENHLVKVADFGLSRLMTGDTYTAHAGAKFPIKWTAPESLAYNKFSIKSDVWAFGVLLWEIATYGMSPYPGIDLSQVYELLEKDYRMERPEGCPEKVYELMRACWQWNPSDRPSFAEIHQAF
# TEST DESCRIPTION: c-Abl T315I (unphosphorylated kinase domain) pyruvate kinase/lactate dehydrogenase coupled enzyme assay
# Format: biochemical
# MEASUREMENT CONTEXT: 10 μM ATP
MEASURE: ABL_T315I_0P (IC50)

# annotated cases, reported ABL_T315I_0P (IC50) shown
- MOLECULE: "COc1cc(F)ccc1-c1c[nH]c2ncc(-c3cnc(N)c(C(=O)N(C)C)c3)c(Cl)c12"
  ABL_T315I_0P (IC50): "D (<0.01 μM)"
- MOLECULE: "CN(C)C(=O)c1cncc(-c2cnc3[nH]cc(-c4ccccc4F)c3c2Cl)c1"
  ABL_T315I_0P (IC50): "D (<0.01 μM)"
- MOLECULE: "COc1ccccc1-c1c[nH]c2ncc(Br)c(Cl)c12"
  ABL_T315I_0P (IC50): "C (0.1-0.01 μM)"
- MOLECULE: "CN(C)C(=O)c1cncc(-c2cnc3[nH]cc(-c4ccccc4F)c3c2Cl)n1 [6-[4-chloro-3-(2-fluoro-phenyl)-1H-pyrrolo[2,3,b]pyridine-5-]"
  ABL_T315I_0P (IC50): "D (<0.01 μM)"

Given the molecule `CN(C)C(=O)c1cncc(-c2cnc3[nH]cc(-c4cccc(F)c4F)c3c2Cl)c1` , what is its reported ABL_T315I_0P (IC50)? D (<0.01 μM)

Given the molecule CN(C)C(=O)C(O)c1cncc(-c2cnc3[nH]nc(-c4ccccc4F)c3c2Cl)c1 (stereo not shown) , what is its reported ABL_T315I_0P (IC50)? B (1.0-0.1 μM)

Given the molecule CC(C)c1ncncc1-c1c[nH]c2ncc(-c3cncc(C(O)C(=O)N(C)C)c3)c(Cl)c12 (stereo not shown) , what is its reported ABL_T315I_0P (IC50)? B (1.0-0.1 μM)

Given the molecule `CN(C)C(=O)c1nc(-c2cnc3[nH]cc(-c4ccc(F)cc4)c3c2Cl)cnc1N` , what is its reported ABL_T315I_0P (IC50)? C (0.1-0.01 μM)

Given the molecule `COc1ccccc1-c1c[nH]c2ncc(-c3ccc(N)c(C(=O)N(C)C)c3)c(Cl)c12` , what is its reported ABL_T315I_0P (IC50)? D (<0.01 μM)

Given the molecule `CN(C)C(=O)c1nc(-c2cnc3[nH]cc(-c4ccccc4)c3c2Cl)cnc1N` , what is its reported ABL_T315I_0P (IC50)? D (<0.01 μM)

Data provenance is patent US8158647B2.
